Documented TI shift (HTD/VDR of test compound divided by HTD/VDR of calcitriol) across a set of compounds
- System under test: human VDR (Homo sapiens, UniProt P11473)
- Construct: expressed in transfected cells; host or cells: COS cells, human VDR in pSG5
- Sequence (P11473 whole entry): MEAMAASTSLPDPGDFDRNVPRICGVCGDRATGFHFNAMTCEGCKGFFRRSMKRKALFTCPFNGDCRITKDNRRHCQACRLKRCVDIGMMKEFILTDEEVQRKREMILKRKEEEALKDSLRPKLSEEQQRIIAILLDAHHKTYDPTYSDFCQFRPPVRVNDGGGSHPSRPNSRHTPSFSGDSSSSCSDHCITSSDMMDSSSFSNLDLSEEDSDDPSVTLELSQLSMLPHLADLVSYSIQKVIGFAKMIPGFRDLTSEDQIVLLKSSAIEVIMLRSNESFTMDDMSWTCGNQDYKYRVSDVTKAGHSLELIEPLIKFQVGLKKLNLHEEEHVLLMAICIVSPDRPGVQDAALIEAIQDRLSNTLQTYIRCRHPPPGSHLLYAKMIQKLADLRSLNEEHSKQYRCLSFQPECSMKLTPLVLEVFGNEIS
- Protocol text: Vitamin D receptor activation (VDR), transcription activation assay in COS cells
- Assay type: cell-based
- Assay context: vs calcitriol
Respond numerically, and do not add a unit to the figure.

Past entries and their recorded results:
For record "C[C@H](CNC(=O)C[C@@](C)(O)C(F)(F)F)[C@H]1CCC[C@H]2/C(=C/C=C3C[C@@H](O)C[C@H](O)C3)CCC[C@]12C" the listed TI shift (HTD/VDR of test compound divided by HTD/VDR of calcitriol) is 44

Summary for this compound, C[C@H](CNC(=O)CC(C)(O)C(F)(F)F)[C@H]1CC[C@H]2/C(=C/C=C3C[C@@H](O)C[C@H](O)C3)CCC[C@]12C (mixture of isomers) : TI shift (HTD/VDR of test compound divided by HTD/VDR of calcitriol) is 139

API: the following record is the query input.
Entry C=C1/C(=C/C=C2\CCC[C@]3(C)[C@@H]([C@H](C)CNC(=O)CC(C)(O)C(F)(F)F)CC[C@@H]23)C[C@@H](O)C[C@@H]1O (mixture of isomers) , TI shift (HTD/VDR of test compound divided by HTD/VDR of calcitriol) reported as 17
